# study-system: Amyloid-beta precursor protein (Homo sapiens, UniProt P05067)
# Sequence (P05067 whole entry): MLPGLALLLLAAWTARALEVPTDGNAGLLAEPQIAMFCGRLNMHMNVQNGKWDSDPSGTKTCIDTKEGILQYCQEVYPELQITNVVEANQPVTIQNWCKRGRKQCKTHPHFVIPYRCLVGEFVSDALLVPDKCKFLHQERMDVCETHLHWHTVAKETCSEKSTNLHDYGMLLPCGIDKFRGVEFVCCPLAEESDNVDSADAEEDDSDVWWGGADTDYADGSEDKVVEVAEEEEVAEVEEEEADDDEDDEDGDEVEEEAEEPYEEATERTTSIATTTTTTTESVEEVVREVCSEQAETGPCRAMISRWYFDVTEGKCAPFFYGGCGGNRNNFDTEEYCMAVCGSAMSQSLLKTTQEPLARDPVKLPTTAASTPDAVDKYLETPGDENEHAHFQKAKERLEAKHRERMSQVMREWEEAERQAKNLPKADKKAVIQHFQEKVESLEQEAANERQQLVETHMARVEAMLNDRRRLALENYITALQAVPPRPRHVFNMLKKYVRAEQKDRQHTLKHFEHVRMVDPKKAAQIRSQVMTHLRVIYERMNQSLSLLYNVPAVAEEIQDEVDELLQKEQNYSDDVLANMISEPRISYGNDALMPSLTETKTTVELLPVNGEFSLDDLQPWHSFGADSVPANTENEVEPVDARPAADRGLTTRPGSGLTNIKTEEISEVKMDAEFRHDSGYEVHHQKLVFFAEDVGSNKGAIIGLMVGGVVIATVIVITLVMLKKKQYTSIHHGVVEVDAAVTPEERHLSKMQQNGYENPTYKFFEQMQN
# experiment-summary: Inhibition of amyloid beta (1 to 42 ) (unknown origin) self aggregation at 40 uM after 24 hrs by thioflavin-T fluorescence method
Active and inactive are the calls of the source. The calls are words filed in the database; no cut-off is given here.
Labels: 1 = active, 0 = inactive

entry-smiles | study-system | label-class
Cc1ccc(-n2cc(C(=O)Nc3ccc(C(O)(C(F)(F)F)C(F)(F)F)cc3)nn2)cc1C | Amyloid-beta precursor protein (Homo sapiens, UniProt P05067) | 1
O=C(Nc1ccccc1)c1cn(-c2ccc(C(O)(C(F)(F)F)C(F)(F)F)cc2)nn1 | Amyloid-beta precursor protein (Homo sapiens, UniProt P05067) | 0
COc1ccc(-n2cc(CNc3ccc(C(O)(C(F)(F)F)C(F)(F)F)cc3)nn2)cc1OC | Amyloid-beta precursor protein (Homo sapiens, UniProt P05067) | 1
Cc1ccc(-n2cc(CNc3ccc(C(O)(C(F)(F)F)C(F)(F)F)cc3)nn2)cc1C | Amyloid-beta precursor protein (Homo sapiens, UniProt P05067) | 0
Cc1ccc(NC(=O)c2cn(-c3ccc(C(O)(C(F)(F)F)C(F)(F)F)cc3)nn2)cc1C | Amyloid-beta precursor protein (Homo sapiens, UniProt P05067) | 1

Data credit: ChEMBL document CHEMBL4819071
